# credit: BindingDB's records for PubMed 8102785

Where a SMILES comes first, the peptide text is derived from it. [ ]: non-standard residue; d: D form. ξ: configuration not given here. Phe(4-Cl) = N[C@@H](Cc1ccc(Cl)cc1)C(=O)O; 1Nal = N[C@@H](Cc1cccc2ccccc12)C(=O)O; 2Nal = N[C@@H](Cc1ccc2ccccc2c1)C(=O)O; Thr(3ξ) = CC(O)[C@H](N)C(=O)O
Here's what we have: pKi numbers for Somatostatin receptor type 4 (Rattus norvegicus, UniProt P30937).
Recall that pKi is obtained by taking minus log10 of the concentration measured in molar.

# molecule, pKi
data = [
    ("CC(O)[C@H](NC(=O)[C@H](CCCCN)NC(=O)[C@@H](Cc1c[nH]c2ccccc12)NC(=O)[C@H](Cc1ccc(O)cc1)NC(=O)[C@@H](C)NC(=O)[C@@H](N)Cc1ccccc1)C(=O)N[C@@H](C)C(=O)N[C@@H](Cc1cccc2ccccc12)C(N)=O (some centres not stated) [BIM 23070] (H-F[dA]Y[dW]K[Thr(3ξ)]A[1Nal]-NH2)", 8.00),
]

Now for a further molecule.
Q) What value of pKi has been reported for the following molecule? CC(C)[C@H](NC(=O)[C@H](CCCCN)NC(=O)[C@@H](Cc1c[nH]c2ccccc12)NC(=O)[C@H](Cc1ccc(O)cc1)NC(=O)[C@H](Cc1ccc(Cl)cc1)NC(=O)[C@@H](N)Cc1ccccc1)C(=O)N[C@@H](Cc1ccccc1)C(=O)N[C@@H](Cc1ccc2ccccc2c1)C(N)=O [BIM 23063] (H-F[Phe(4-Cl)]Y[dW]KVF[2Nal]-NH2)
A) 7.37
